Hey, just so you know, these numbers are from patent US5739145A.

ED50 values by entry
Tested on: rats (capsaicin-induced cough)
experimental.details: animal or person
Assay type: in vivo
experimental.context: Rattus norvegicus, ip, 0.5 h
Number only, in µg/kg; omit the unit.

1. COc1ccc2c3c1O[C@H]1[C@H](N(C)C(=O)/C=C/c4ccoc4)CC[C@@]4(O)[C@@H](C2)N(CC2CC2)CC[C@]314 [Compound 12]	0.12
2. CN(C(=O)/C=C/c1cccc(OC(F)(F)F)c1)[C@@H]1CC[C@@]2(O)[C@H]3Cc4ccc(O)c5c4[C@@]2(CCN3CC2CC2)[C@H]1O5 [Compound 10]	2.1

Please find the next compound below.
Exercise: Requested field: ED50. Item: CN(C(=O)OCc1ccccc1)[C@@H]1CC[C@@]2(O)[C@H]3Cc4ccc(O)c5c4[C@@]2(CCN3CC2CC2)[C@H]1O5 [Compound 8]
Solution: 1.79

* * *

target.or.test.system: δ opioid receptor (Mus musculus)
Construct: from tissue; host or cells: vas deferens of male ddy mice
Sequence (P32300 whole entry): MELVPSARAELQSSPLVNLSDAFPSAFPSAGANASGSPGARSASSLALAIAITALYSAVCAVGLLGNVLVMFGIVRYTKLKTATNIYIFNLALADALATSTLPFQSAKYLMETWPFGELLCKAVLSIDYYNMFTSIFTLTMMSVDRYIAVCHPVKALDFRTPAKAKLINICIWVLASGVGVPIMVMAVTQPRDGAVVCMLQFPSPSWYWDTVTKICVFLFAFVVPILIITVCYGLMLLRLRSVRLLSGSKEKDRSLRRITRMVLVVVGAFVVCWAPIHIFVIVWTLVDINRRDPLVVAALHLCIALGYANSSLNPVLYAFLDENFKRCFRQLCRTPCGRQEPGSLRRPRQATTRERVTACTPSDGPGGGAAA
experimental.details: Antagonism by the δ-antagonist NTI in extracted mouse vas deferens
Type: cell-based
experimental.context: Ke=[antagonist]/(IC50 ratio -1)
Overview of recorded Ke NTI for various molecules
Field format: number, assumed nM, no unit text.

Examples with answers:
1. Cc1cccc(/C=C/C(=O)N(C)[C@@H]2CC[C@@]3(O)[C@H]4Cc5ccc(O)c6c5[C@@]3(CCN4CC3CC3)[C@H]2O6)c1 [Compound 6]	64.5
2. CN(C(=O)/C=C/c1cccc(OC(F)(F)F)c1)[C@@H]1CC[C@@]2(O)[C@H]3Cc4ccc(O)c5c4[C@@]2(CCN3CC2CC2)[C@H]1O5 [Compound 10]	17.6
3. CN(C(=O)OCc1ccccc1)[C@@H]1CC[C@@]2(O)[C@H]3Cc4ccc(O)c5c4[C@@]2(CCN3CC2CC2)[C@H]1O5 [Compound 8]	532

Consider the additional molecule presented here.
Exercise: Which Ke NTI value is on record for CN(C(=O)/C=C/c1cccc(C(F)(F)F)c1)[C@@H]1CC[C@@]2(O)[C@H]3Cc4ccc(O)c5c4[C@@]2(CCN3CC2CC2)[C@H]1O5 [Compound 4] ?
Solution: 291

* * *

target.or.test.system: κ-receptors (Mus musculus, UniProt P33534)
Construct: from tissue; host or cells: vas deferens of male ddy mice
Sequence (P33534 whole entry): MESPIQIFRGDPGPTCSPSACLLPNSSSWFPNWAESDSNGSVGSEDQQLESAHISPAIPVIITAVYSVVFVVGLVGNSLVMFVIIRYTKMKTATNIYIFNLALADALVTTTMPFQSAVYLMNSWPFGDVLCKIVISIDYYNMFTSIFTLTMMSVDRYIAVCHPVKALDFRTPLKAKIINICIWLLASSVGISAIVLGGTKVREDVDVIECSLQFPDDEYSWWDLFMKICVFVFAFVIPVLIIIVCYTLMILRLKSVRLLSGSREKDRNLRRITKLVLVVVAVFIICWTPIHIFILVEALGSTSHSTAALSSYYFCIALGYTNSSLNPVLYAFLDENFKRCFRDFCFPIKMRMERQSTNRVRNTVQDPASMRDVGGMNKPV
experimental.details: Antagonism by the κ-antagonist norBNI in extracted mouse vas deferens
Format: cell-based
experimental.context: Ke=[antagonist]/(IC50 ratio -1)
Rule for this label: yes (1) means Ke norBNI is less than 0.2 nM; no (0) means Ke norBNI is at least 0.2 nM.

1. CN(C(=O)/C=C/c1cccc(OC(F)(F)F)c1)[C@@H]1CC[C@@]2(O)[C@H]3Cc4ccc(O)c5c4[C@@]2(CCN3CC2CC2)[C@H]1O5 [Compound 10]	yes (1)

Exercise: Consider CN(C(=O)/C=C/c1ccoc1)[C@@H]1CC[C@@]2(O)[C@H]3Cc4ccc(O)c5c4[C@@]2(CCN3CC2CC2)[C@H]1O5 [Compound 5] . Does its Ke norBNI lie strictly below 0.2 nM?
Solution: yes (1)

Exercise: Then what about the compound CN(C(=O)OCc1ccccc1)[C@@H]1CC[C@@]2(O)[C@H]3Cc4ccc(O)c5c4[C@@]2(CCN3CC2CC2)[C@H]1O5 [Compound 8] ?
Solution: no (0)

Exercise: Now consider Cc1cccc(/C=C/C(=O)N(C)[C@@H]2CC[C@@]3(O)[C@H]4Cc5ccc(O)c6c5[C@@]3(CCN4CC3CC3)[C@H]2O6)c1 [Compound 6] .
Solution: no (0)

Exercise: Param item: CN(C(=O)/C=C/c1cccc(C(F)(F)F)c1)[C@@H]1CC[C@@]2(O)[C@H]3Cc4ccc(O)c5c4[C@@]2(CCN3CC2CC2)[C@H]1O5 [Compound 4]
Solution: no (0)

* * *

Test system: rats (capsaicin-induced cough)
experimental.details: animal or person
Format: in vivo
experimental.context: Rattus norvegicus, ip, 0.5 h
Where a name gives a salt, the structure may show the parent alone.
outcome.measure: ED50 (mg/kg)
Give a bare numeral; the unit mg/kg is implied.

Here are 2 compounds together with their reported answers.
1) CN(C(=O)/C=C/c1cccc(C(F)(F)F)c1)[C@@H]1CC[C@@]2(O)[C@H]3Cc4ccc(O)c5c4[C@@]2(CCN3CC2CC2)[C@H]1O5	0.107
2) COc1ccc2c3c1O[C@H]1[C@H](N(C)C(=O)C#Cc4cccc(C)c4)CC[C@@]4(O)[C@@H](C2)N(CC2CC2)CC[C@]314	0.0121

Exercise: Which value of ED50 has been reported for O=C(CCc1ccccc1)O[C@H]1CC[C@@]2(O)[C@H]3Cc4ccc(O)c5c4[C@@]2(CCN3CC2CC2)[C@H]1O5 in the records?
Solution: 3.3

Exercise: Again, but for CN(CCc1ccc(Cl)c(Cl)c1)[C@@H]1CC[C@@]2(O)[C@H]3Cc4ccc(O)c5c4[C@@]2(CCN3CC2CC2)[C@H]1O5 [Compound 7, HCl]
Solution: 0.437

Exercise: Next: Cc1cccc(C#CC(=O)N(C)[C@@H]2CC[C@@]3(O)[C@H]4Cc5ccc(O)c6c5[C@@]3(CCN4CC3CC3)[C@H]2O6)c1
Solution: 0.0135

Exercise: Another: CN(C(=O)/C=C/c1ccoc1)[C@@H]1CC[C@@]2(O)[C@H]3Cc4ccc(O)c5c4[C@@]2(CCN3CC2CC2)[C@H]1O5
Solution: 0.0043
